Entries annotated with measured microsomal CLint at 1 uM
experiment: Metabolic stability in human hepatic microsome; assay type: in vitro ADME; conditions: human, microsomes, pH 7.4, CL NADPH(+)
Positions of bridges follow the written chain, without caps; N, C: chain ends. Non-standard residues stand in square brackets, D forms with d. Residues, ends and D or L forms follow the SMILES beside them. *: point of attachment. NEtPhe = CCN[C@@H](Cc1ccccc1)C(=O)O; NMeF = CN[C@@H](Cc1ccccc1)C(=O)O; NMeL = CN[C@@H](CC(C)C)C(=O)O; NMeV = CN[C@H](C(=O)O)C(C)C; NMeA = CN[C@@H](C)C(=O)O; Piperidide = C1CCN(*)CC1; Sar = CNCC(=O)O

{"columns": ["Compound", "microsomal CLint at 1 uM"],
 "data": [
  ["CC[C@H](C)[C@@H]1NC(=O)[C@@H](C(C)C)NC(=O)C[C@@H](C(=O)N(C)[C@@H](Cc2ccccc2)C(=O)N[C@@H](C)C(=O)N2CCCCC2)NC(=O)[C@H](Cc2ccccc2)N(C)C(=O)[C@H](C)NC(=O)[C@H](CC(C)C)N(C)C(=O)[C@H](C)N(C)C(=O)[C@H]([C@@H](C)O)NC(=O)[C@H](C)N(C)C(=O)[C@H](C(C)C)N(C)C1=O [DP-294] ([dV]I[NMeV][NMeA]T[NMeA][NMeL]A[NMeF]D[NMeF]A-Piperidide; lactam N-10)", "35 µL/min/mg"],
  ["CCN1C(=O)CN(C)C(=O)[C@H]([C@@H](C)O)NC(=O)[C@H](C)N(C)C(=O)C[C@@H](C(=O)N2CCCCC2)NC(=O)[C@H](C(C)C)N(C)C(=O)[C@H](C)NC(=O)[C@H](CC(C)C)N(C)C(=O)[C@@H]2CCCN2C(=O)[C@H](CC(C)C)N(C)C(=O)[C@H](Cc2ccccc2)N(C)C(=O)[C@@H]1Cc1ccccc1 [DP-542] ([NMeA]T[Sar][NEtPhe][NMeF][NMeL]P[NMeL]A[NMeV]D-Piperidide; lactam N-11)", "21 µL/min/mg"]
]}

###

Entries annotated with measured Papp at 18 hours, 50 µM
experiment: PAMPA (parallel artificial membrane permeability assay); format: in vitro ADME; details: PAMPA; membrane permeation rate (Pe); 50 mM MOPSO buffer pH 6.5 with 5.0% glycocholic acid, 37° C., 18 hours; read-out: iPAMPA Pe
Starred links: 1 amine or outer side, 2 acyl side, 3 side chain; linkers in the order of their positions; H or OH if unused. Positions of bridges follow the written chain, without caps; N, C: chain ends. Non-standard residues stand in square brackets, D forms with d. Residues, ends and D or L forms follow the SMILES beside them. *: point of attachment. NMeF = CN[C@@H](Cc1ccccc1)C(=O)O; NMeGABA = CN(CCCC(=O)[*:2])[*:1]; NMeL = CN[C@@H](CC(C)C)C(=O)O; NMeA = CN[C@@H](C)C(=O)O; Piperidide = C1CCN(*)CC1; tBu = CC(C)(C)*

{"columns": ["Compound", "Papp at 18 hours, 50 µM"],
 "data": [
  ["CC(C)C[C@H]1C(=O)N[C@@H](COC(C)(C)C)C(=O)N[C@@H]([C@@H](C)O)C(=O)N(C)[C@@H](Cc2ccccc2)C(=O)N(C)[C@@H](CC(C)C)C(=O)N[C@H](C(=O)N2CCCCC2)CC(=O)N[C@@H](C(C)C)C(=O)N1C [DP-748] (V[NMeL]S(tBu)T[NMeF][NMeL]D-Piperidide; lactam N-7)", "45 ×10⁻⁶ cm/s"],
  ["CC(C)C[C@H]1C(=O)NCC(=O)N[C@H](C(=O)N(C)[C@@H](Cc2ccccc2)C(=O)N[C@@H](C)C(=O)N2CCCCC2)CC(=O)N[C@@H](C)C(=O)N[C@@H]([C@@H](C)O)C(=O)N(C)[C@@H](C)C(=O)N(C)[C@@H](Cc2ccccc2)C(=O)N[C@@H](C(C)C)C(=O)N(C)[C@@H](Cc2ccccc2)C(=O)N1C [DP-378] (AT[NMeA][NMeF]V[NMeF][NMeL]GD[NMeF]A-Piperidide; lactam N-9)", "31 ×10⁻⁶ cm/s"],
  ["CC(C)C[C@H]1C(=O)N(C)[C@@H](CC(C)C)C(=O)N[C@H](C(=O)N2CCCCC2)CC(=O)N(C)CCCC(=O)N(C)[C@@H](Cc2ccccc2)C(=O)N[C@@H]([C@@H](C)O)C(=O)N(C)[C@@H](C)C(=O)N[C@@H](COC(C)(C)C)C(=O)N1C [DP-685] ([NMeGABA][NMeF]T[NMeA]S(tBu)[NMeL][NMeL]D-Piperidide; lactam N-8)", "28 ×10⁻⁶ cm/s"]
]}

###

Entries annotated with measured microsomal CLint at 1 uM
assay: Metabolic stability in human hepatic microsome; assay type: in vitro ADME; settings: microsomes, pH 7.4; human hepatic microsome, NADPH(+); read-out: CL NADPH(+)
Positions of bridges follow the written chain, without caps; N, C: chain ends. Non-standard residues stand in square brackets, D forms with d. Residues, ends and D or L forms follow the SMILES beside them. *: point of attachment. NMeF = CN[C@@H](Cc1ccccc1)C(=O)O; NMeI = CC[C@H](C)[C@H](NC)C(=O)O; NMeL = CN[C@@H](CC(C)C)C(=O)O; NMeA = CN[C@@H](C)C(=O)O; Piperidide = C1CCN(*)CC1; dNMeA = CN[C@H](C)C(=O)O; β3hA = C[C@H](N)CC(=O)O; Sar = CNCC(=O)O; tBu = CC(C)(C)*

{"columns": ["Molecule", "microsomal CLint at 1 uM"],
 "data": [
  ["CC[C@H](C)[C@H]1C(=O)N[C@@H](C)CC(=O)N(C)[C@H](C)C(=O)N(C)[C@@H](CC(C)C)C(=O)N(C)[C@@H](CC(C)C)C(=O)N[C@@H]([C@@H](C)O)C(=O)N(C)CC(=O)N[C@@H](COC(C)(C)C)C(=O)N(C)[C@@H](CC(C)C)C(=O)N1C [DP-800] (cyclo([NMeI][β3hA][dNMeA][NMeL][NMeL]T[Sar]S(tBu)[NMeL]))", "58 µL/min/mg"],
  ["CC[C@H](C)[C@@H]1NC(=O)[C@H](Cc2ccccc2)NC(=O)[C@H](C)N(C)C(=O)C[C@@H](C(=O)N2CCCCC2)NC(=O)[C@H](CC(C)C)NC(=O)[C@H](Cc2ccccc2)NC(=O)[C@H](Cc2ccccc2)N(C)C(=O)[C@H](CC(C)C)NC(=O)[C@H]([C@@H](C)O)NC(=O)[C@H](CC(C)C)N(C)C1=O [DP-332] ([NMeA]FI[NMeL]TL[NMeF]FLD-Piperidide; lactam N-10)", "284 µL/min/mg"]
]}

###

test: PAMPA (parallel artificial membrane permeability assay); type: in vitro ADME; conditions: PAMPA, pH 6.5
Starred links: 1 amine or outer side, 2 acyl side, 3 side chain; linkers in the order of their positions; H or OH if unused. Positions of bridges follow the written chain, without caps; N, C: chain ends. Non-standard residues stand in square brackets, D forms with d. Residues, ends and D or L forms follow the SMILES beside them. *: point of attachment. NMeF = CN[C@@H](Cc1ccccc1)C(=O)O; NMeGABA = CN(CCCC(=O)[*:2])[*:1]; NMeI = CC[C@H](C)[C@H](NC)C(=O)O; NMeL = CN[C@@H](CC(C)C)C(=O)O; NMeA = CN[C@@H](C)C(=O)O; Piperidide = C1CCN(*)CC1; dNMeA = CN[C@H](C)C(=O)O; β3hA = C[C@H](N)CC(=O)O; tBu = CC(C)(C)*
Property Label: Papp at 18 hours, 50 µM (×10⁻⁶ cm/s)

{"columns": ["Compound", "Units Of Measure", "Meas Value"],
 "data": [
  ["CC[C@H](C)[C@H]1C(=O)N[C@@H](CC(C)C)C(=O)N2CCC[C@H]2C(=O)N[C@@H]([C@@H](C)O)C(=O)N(C)[C@@H](C)C(=O)N[C@@H](Cc2ccccc2)C(=O)N[C@H](C(=O)N2CCCCC2)CC(=O)N(C)[C@@H](C)C(=O)N[C@@H](Cc2ccccc2)C(=O)N(C)[C@@H](CC(C)C)C(=O)N[C@@H](COC(C)(C)C)C(=O)NCC(=O)N1C [DP-57] ([NMeA]F[NMeL]S(tBu)G[NMeI]LPT[NMeA]FD-Piperidide; lactam N-12)", "×10⁻⁶ cm/s", 26],
  ["CC[C@H](C)[C@@H]1NC(=O)[C@H](C)N(C)C(=O)[C@@H](C)N(C)C(=O)C[C@@H](C(=O)N2CCCCC2)NC(=O)[C@H](CC(C)C)N(C)C(=O)[C@H](C)N(C)C(=O)[C@H](Cc2ccccc2)N(C)C(=O)[C@H]([C@@H](C)O)NC(=O)[C@H](Cc2ccccc2)N(C)C(=O)[C@H](CC(C)C)N(C)C1=O [DP-51] ([dNMeA][NMeA]I[NMeL][NMeF]T[NMeF][NMeA][NMeL]D-Piperidide; lactam N-10)", "×10⁻⁶ cm/s", 34],
  ["CC[C@H](C)[C@@H]1NC(=O)[C@H](C)N(C)C(=O)C[C@@H](C(=O)N(C)[C@@H](Cc2ccccc2)C(=O)N[C@@H](C)C(=O)N2CCCCC2)NC(=O)[C@H](CC(C)C)N(C)C(=O)[C@H](CC(C)C)NC(=O)[C@@H]2CCCN2C(=O)CNC(=O)[C@H](CC(C)C)N(C)C(=O)[C@H](Cc2ccccc2)N(C)C(=O)[C@H](Cc2ccccc2)NC(=O)[C@H]([C@@H](C)O)NC1=O [DP-280] ([NMeA]ITF[NMeF][NMeL]GPL[NMeL]D[NMeF]A-Piperidide; lactam N-11)", "×10⁻⁶ cm/s", 21],
  ["CC(C)C[C@H]1C(=O)N(C)[C@@H](Cc2ccccc2)C(=O)NCC(=O)N[C@@H](C)CC(=O)N(C)CCCC(=O)N[C@@H]([C@@H](C)O)C(=O)N(C)[C@@H](C)C(=O)N(C)[C@@H](Cc2ccccc2)C(=O)N[C@@H](COC(C)(C)C)C(=O)N1C [DP-785] (cyclo(G[β3hA][NMeGABA]T[NMeA][NMeF]S(tBu)[NMeL][NMeF]))", "×10⁻⁶ cm/s", 29],
  ["CC[C@H](C)[C@H]1C(=O)N[C@@H]([C@@H](C)O)C(=O)N[C@@H](Cc2ccccc2)C(=O)N2CCC[C@H]2C(=O)NCC(=O)N(C)[C@@H](CC(C)C)C(=O)N[C@H](C(=O)N2CCCCC2)CC(=O)N[C@H](C)C(=O)N[C@@H](Cc2ccccc2)C(=O)N(C)[C@@H](CC(C)C)C(=O)N[C@@H](CC(C)C)C(=O)N1C [DP-227] ([dA]F[NMeL]L[NMeI]TFPG[NMeL]D-Piperidide; lactam N-11)", "×10⁻⁶ cm/s", 38]
]}
